molecular target: Melanocortin receptor 3 (Mus musculus); assay: Binding constant (Ki) at mouse Melanocortin-3 receptor
Sequence (P33033 whole entry): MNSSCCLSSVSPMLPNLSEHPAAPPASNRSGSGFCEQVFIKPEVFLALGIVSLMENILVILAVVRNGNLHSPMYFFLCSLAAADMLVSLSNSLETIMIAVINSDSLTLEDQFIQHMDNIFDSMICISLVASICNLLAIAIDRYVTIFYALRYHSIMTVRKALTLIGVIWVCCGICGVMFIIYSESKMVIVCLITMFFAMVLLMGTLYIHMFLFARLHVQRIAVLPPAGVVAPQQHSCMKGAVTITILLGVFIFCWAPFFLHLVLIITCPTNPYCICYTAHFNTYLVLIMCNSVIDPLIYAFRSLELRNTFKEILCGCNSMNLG
pKi: −log10 of the molar value.
Attribute Measured: pKi

>>> reported_measurement("CC(=O)N[C@@H](Cc1cnc[nH]1)C(=O)N[C@H](Cc1ccc2ccccc2c1)C(=O)N[C@@H](CCCNC(=N)N)C(=O)N[C@@H](Cc1c[nH]c2ccccc12)C(N)=O")
6.53

---

# pEC50 annotations
biological target: Melanocortin receptor 5 (Mus musculus); assay: Agonist activity towards mouse Melanocortin-5 receptor (mMC5R)
Sequence (P41149 whole entry): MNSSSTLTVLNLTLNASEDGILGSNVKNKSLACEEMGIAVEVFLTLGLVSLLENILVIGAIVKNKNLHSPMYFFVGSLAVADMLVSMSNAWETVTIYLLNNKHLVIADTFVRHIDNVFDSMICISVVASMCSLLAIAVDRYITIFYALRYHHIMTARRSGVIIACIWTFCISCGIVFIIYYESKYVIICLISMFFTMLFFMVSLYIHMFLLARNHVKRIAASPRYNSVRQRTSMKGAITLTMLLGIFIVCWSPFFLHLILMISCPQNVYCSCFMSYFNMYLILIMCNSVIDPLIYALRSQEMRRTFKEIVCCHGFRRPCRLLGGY
pEC50: −log10 of the molar value. Where a SMILES comes first, the peptide text is derived from it.
Attribute Measured: pEC50

>>> reported_measurement("CC(=O)N[C@@H](Cc1c[nH]cn1)C(=O)NC1(C(=O)N[C@@H](CCCN=C(N)N)C(=O)N[C@@H](Cc2c[nH]c3ccccc23)C(N)=O)CCc2ccccc2C1 (stereo in doubt; 26)")
5.68
>>> reported_measurement("CC(=O)N[C@@H](Cc1c[nH]cn1)C(=O)NC1(C(=O)N[C@@H](CCCN=C(N)N)C(=O)N[C@@H](Cc2c[nH]c3ccccc23)C(N)=O)CCc2ccccc2C1 (stereo in doubt; 25)")
6.58
>>> reported_measurement("CC(=O)N[C@@H](Cc1cnc[nH]1)C(=O)N[C@@H](Cc1c[nH]c2ccccc12)C(=O)N[C@@H](CCCNC(=N)N)C(=O)N[C@@H](Cc1c[nH]c2ccccc12)C(N)=O")
4.74
>>> reported_measurement("CC(=O)N[C@@H](Cc1c[nH]cn1)C(=O)N[C@@H](Cc1c[nH]cn1)C(=O)N[C@@H](CCCN=C(N)N)C(=O)N[C@@H](Cc1c[nH]c2ccccc12)C(N)=O (Ac-HHRW-NH2)")
4.39
>>> reported_measurement("CC(=O)N[C@@H](Cc1c[nH]cn1)C(=O)N[C@@H](CCc1ccccc1)C(=O)N[C@@H](CCCN=C(N)N)C(=O)N[C@@H](Cc1c[nH]c2ccccc12)C(N)=O")
4.93
>>> reported_measurement("CC(=O)N[C@@H](Cc1cnc[nH]1)C(=O)N[C@H](C(=O)N[C@@H](CCCNC(=N)N)C(=O)N[C@@H](Cc1c[nH]c2ccccc12)C(N)=O)c1ccccc1")
5.40
>>> reported_measurement("CC(=O)N[C@@H](Cc1cnc[nH]1)C(=O)N[C@H](Cc1ccc2ccccc2c1)C(=O)N[C@@H](CCCNC(=N)N)C(=O)N[C@@H](Cc1c[nH]c2ccccc12)C(N)=O")
7.46
>>> reported_measurement("CC(=O)N[C@@H](Cc1c[nH]cn1)C(=O)N[C@H](Cc1ccc(-c2ccccc2)cc1)C(=O)N[C@@H](CCCN=C(N)N)C(=O)N[C@@H](Cc1c[nH]c2ccccc12)C(N)=O")
7.94
>>> reported_measurement("CC(=O)N[C@@H](Cc1c[nH]cn1)C(=O)N[C@H](Cc1c[nH]c2ccccc12)C(=O)N[C@@H](CCCN=C(N)N)C(=O)N[C@@H](Cc1c[nH]c2ccccc12)C(N)=O")
5.16
